- Test system: MDA-MB-231;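 also: viability read by CCK-8 kit in 96-well plates, part of a combination screen pairing lipid-metabolism-targeting compounds with erastin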
- TEST_DETAILS: relative cell viability, compound + erastin, vs DMSO (fraction of DMSO control); higher = less growth inhibition
- ASSAY_SETUP: 72 h
Structures can show the parent of a compound that is named as a salt.
MEASURED_PARAMETER: relative cell viability

1. CCc1ccc(N(CC(C)C)S(=O)(=O)c2ccc(OCC3CCOCC3)c(CO)c2)cc1 + CCOc1ccccc1-n1c(C(C)N2CCN(C(=O)COc3ccc(Cl)cc3)CC2)nc2ccccc2c1=O; 0.604
2. NC(=O)c1cccc(-c2cccc(OC(=O)NC3CCCCC3)c2)c1 + CCOc1ccccc1-n1c(C(C)N2CCN(C(=O)COc3ccc(Cl)cc3)CC2)nc2ccccc2c1=O; 0.568
3. COc1cccc(CNc2ccc(S(=O)(=O)Nc3nc4ccccc4s3)cc2)c1O + CCOc1ccccc1-n1c(C(C)N2CCN(C(=O)COc3ccc(Cl)cc3)CC2)nc2ccccc2c1=O; 0.68
4. O=P(O)(O)OC(CO)CO [β-Glycerol phosphate disodium salt pentahydrate] + CCOc1ccccc1-n1c(C(C)N2CCN(C(=O)COc3ccc(Cl)cc3)CC2)nc2ccccc2c1=O; 0.527
5. CCc1c(C(=O)C(N)=O)c2c(OCC(=O)O)cccc2n1Cc1ccccc1 [Varespladib] + CCOc1ccccc1-n1c(C(C)N2CCN(C(=O)COc3ccc(Cl)cc3)CC2)nc2ccccc2c1=O; 0.652
6. CC(C)[C@H](N=C(NS(=O)(=O)c1ccc(Cl)cc1)N1C[C@H](c2ccccc2)C(c2ccc(Cl)cc2)=N1)C(N)=O + CCOc1ccccc1-n1c(C(C)N2CCN(C(=O)COc3ccc(Cl)cc3)CC2)nc2ccccc2c1=O; 0.429
